Origin of measurements: patent US20240132624A1

target: T1, human FcRn/b2M (human, UniProt P61769 21-119, biotinylated); experiment: SPR off-rate; pH 7.4 vs pH 6.0;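 also: surface plasmon resonance with diluted periplasmic extracts flowed over ligand surfaces, 120 s association and 600–3600 s dissociation at 25 °C, running buffer containing 150 mM NaCl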
T1 construct: bought recombinant biotinylated protein (ACRO FCM-H82W4 or Immunitrack ITF01); also called hFcRn; hFcRn/hb2M
T1 sequence (chain, as listed by the source limits assumed, chain 1 of 2): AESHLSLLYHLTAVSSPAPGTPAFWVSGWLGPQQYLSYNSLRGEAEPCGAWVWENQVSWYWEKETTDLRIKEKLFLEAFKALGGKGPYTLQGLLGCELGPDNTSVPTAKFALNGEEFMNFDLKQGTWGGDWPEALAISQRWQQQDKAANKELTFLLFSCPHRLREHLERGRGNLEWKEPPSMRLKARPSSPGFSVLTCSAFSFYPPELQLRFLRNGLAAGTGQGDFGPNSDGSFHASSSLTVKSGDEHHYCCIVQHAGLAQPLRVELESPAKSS
T1 sequence (P61769 21-119 limits assumed, chain 2 of 2): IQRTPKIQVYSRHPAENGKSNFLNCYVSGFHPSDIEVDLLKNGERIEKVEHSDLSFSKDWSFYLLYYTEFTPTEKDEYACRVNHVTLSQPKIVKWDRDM
Overview of reported kd ratio pH 7.4/6.0 across a group of binders:
Result type: kd ratio pH 7.4/6.0

T0263018B11 T100bE (VHH, name in Kabat numbering, FLAG3-His6 tagged) VHH: EVQLVESGGGVVQPGGSLRLSCAASGFTFSSYAMYWVRQAPGKGLEWVSAISSGGGSTDYADSVKGRFTISRDNSKNTLYLQMNSLRPEDTALYYCAADTLYTSLEWYSYWGQGTLVTVSS | 45
T0263018B11 S101A (VHH, name in Kabat numbering, FLAG3-His6 tagged) VHH: EVQLVESGGGVVQPGGSLRLSCAASGFTFSSYAMYWVRQAPGKGLEWVSAISSGGGSTDYADSVKGRFTISRDNSKNTLYLQMNSLRPEDTALYYCAADTLYTSLTWYAYWGQGTLVTVSS | 36
T0263018B11 G54L (VHH, name in Kabat numbering, FLAG3-His6 tagged) VHH: EVQLVESGGGVVQPGGSLRLSCAASGFTFSSYAMYWVRQAPGKGLEWVSAISSGLGSTDYADSVKGRFTISRDNSKNTLYLQMNSLRPEDTALYYCAADTLYTSLTWYSYWGQGTLVTVSS | 26
T0263018B11 S56K (VHH, name in Kabat numbering, FLAG3-His6 tagged) VHH: EVQLVESGGGVVQPGGSLRLSCAASGFTFSSYAMYWVRQAPGKGLEWVSAISSGGGKTDYADSVKGRFTISRDNSKNTLYLQMNSLRPEDTALYYCAADTLYTSLTWYSYWGQGTLVTVSS | 25
